Assay: Pharmacokinetic (PK) assay in rat
Type: in vivo
Conditions: blood, po; male SD rat; tail vein and gavage groups, route of the parameter and dose not given; read-out: T1/2 (half-life) (converted)
measure: half-life (h)
# number only, unit h dropped from output

Record O=C(Nc1nc2cccc(C3CCC(NC(=O)C4(F)CC4)CC3)n2n1)C1CC1 (stereo not shown) . Reported half-life: 2.86
